- Tested on: Hs-578T
- Experiment Notes: NCI tumour cell line growth inhibition, 48 h
Calls of active or inactive are those of the source. No stated cut-off is given here; in the data, active = GI50 up to about 1.1 µM and inactive = higher.
# GI50 listing for each entry below

Study these solved cases before continuing.
>>> df
                                chem_smiles       reported_value
0                    CCCCCC1=CC(=O)C1(Cl)Cl     19 µM (inactive)
1  COC(=O)c1cc(OC)c(OC)c(OC)c1-c1cc2c(cc1C=O)OCO2   > 10 µM (inactive)
2        CN(C)c1cccc2c(S(=O)(=O)NCCN)cccc12  > 100 µM (inactive)
3          CC(C)(CO)CNc1nc(N)nc(Cl)c1/C=N/O     27 µM (inactive)

// below: GI50 requested for another compound
get_value(item= O=[As](O)(O)c1ccc(Cc2ccc([As](=O)(O)O)cc2)cc1 , readout=GI50) returns 1.33 µM (inactive)

###

- Test system: RPMI-8226
- Experiment Notes: NCI tumour cell line growth inhibition, 48 h
Calls of active or inactive are those of the source. Cut-off read from the data, not from the text of the source: active = GI50 up to about 1.1 µM and inactive = higher.
Measured Property: GI50

Study these solved cases before continuing.
In [3]: df
Out[3]:
                                   compound       reported_value
0  CN1C(c2ccccc2)CC(O)CC1c1ccccc1 (stereo unspecified)  > 100 µM (inactive)
1  CCOc1ccc2[nH]c3c(C)c4cc[n+](C)cc4c(C)c3c2c1   11.3 µM (inactive)
2  CCOC(=O)NC(=S)NC(C)c1ccccc1 (stereo unspecified)   27.2 µM (inactive)
3  O=[N+]([O-])C(/C=C(\Cl)[N+](=O)[O-])=C1Nc2ccccc2N1   44.3 µM (inactive)
4  CC(C)=CC(=O)Cc1nc2ccc([N+](=O)[O-])cc2[nH]c1=O   17.3 µM (inactive)

// below: GI50 requested for another compound
get_value(item= O=C1C2ON3c4ccccc4C(=O)C3(c3ccccc3)C2C(=O)N1c1ccccc1 (stereo unspecified) , readout=GI50) returns > 100 µM (inactive)

###

# GI50 listing for each entry below
- Tested on: CAKI-1
- Experiment Notes: NCI tumour cell line growth inhibition, 48 h
Activity calls are given as the source filed them. Cut-off read from the data, not from the text of the source: active = GI50 up to about 1.1 µM and inactive = higher.

Study these solved cases before continuing.
>>> df
                                   molecule  system       reported_value
0  O=c1ccn([C@H]2CSC[C@@H](CO)C2)c(=O)[nH]1  CAKI-1  > 100 µM (inactive)
1  COC(=O)c1cc(OC)c(OC)c(OC)c1-c1cc2c(cc1C=O)OCO2  CAKI-1   > 10 µM (inactive)

// below: GI50 requested for another molecule
get_value(item= CC(Oc1ccc2cc(C(=O)c3ccccc3)c(=O)oc2c1)C(=O)O (stereo not drawn) , readout=GI50) returns > 100 µM (inactive)

###

- Tested on: A549
- Experiment Notes: NCI tumour cell line growth inhibition, 48 h
Active and inactive are the calls of the source. Cut-off read from the data, not from the text of the source: active = GI50 up to about 1.1 µM and inactive = higher.
Could you please pick one outcome from this set? 1 (yes) = active, 0 (no) = inactive

Compound	Classification
O=C(CC(C(=O)c1ccsc1)c1ccc2c(c1)OCO2)c1ccccc1 (stereo not drawn)	0 (no)
O=c1[nH]c(-c2ccccc2)nc2cc(Cl)ccc12	0 (no)
CC(=O)O[C@@H]1C2=C(C3=C([O-])C4=CC=CC(=O)C4C(=O)C3=C2[N+]#N)[C@H](OC(C)=O)[C@@H](OC(C)=O)[C@]1(C)O (stereo partly drawn)	1 (yes)
COc1cccc2c1/c(=C/c1ccc(N(C)C)cc1)c1cc(-c3ccccc3)[n+](C)n12	1 (yes)
CCCC(CC)c1c(O)c(O)c(C(CC)CCC)c(C(CC)CCC)c1C(CC)CCC (stereo not drawn)	0 (no)
O=C1C2ON3c4ccccc4C(=O)C3(c3ccccc3)C2C(=O)N1c1ccccc1 (stereo not drawn)	0 (no)
Cc1cccc(/C=C2\CCCc3ccccc3C2=O)c1	0 (no)
COc1ccc2nc3c(c(NCCCN(C)C)c2c1)CCCC3	0 (no)

Prompt: Record request — test call for CC(C)CC(NC(=O)OCc1ccccc1)C(=O)NCCCCC(N)C(=O)NC(CCCCNC(=O)C(CC(C)C)NC(=O)OCc1ccccc1)C(=O)NC(CCCCNC(=O)C(CC(C)C)NC(=O)OCc1ccccc1)C(=O)NC(CCCCNC(=O)C(CC(C)C)NC(=O)OCc1ccccc1)C(=O)NC(CCCCNC(=O)C(CC(C)C)NC(=O)OCc1ccccc1)C(=O)NC(CCCCNC(=O)C(CC(C)C)NC(=O)OCc1ccccc1)C(=O)O (stereo not drawn)
Response: 0 (no)

###

- System: SF-295
- Experiment Notes: NCI tumour cell line growth inhibition, 48 h
The source made the active and inactive calls. Cut-off read from the data, not from the text of the source: active = GI50 up to about 1.1 µM and inactive = higher.
Could you please pick one outcome from this set? active, inactive

The following molecules have reported results that may help.
>>> df
                                   molecule  classification
0  NS(=O)(=O)c1cc2c(cc1Cl)NC(C(=O)NNC(=O)c1ccncc1)=NS2(=O)=O        inactive
1     COc1cccc(CC(C)N)c1 (stereo not given)        inactive
2        O=c1[nH]c(-c2ccccc2)nc2cc(Cl)ccc12        inactive
3  CN1C(=O)C(=O)N2c3ccc(Cl)cc3C3(c4ccccc4)N=CC12O3 (stereo not given)        inactive
4                 CCOP(=O)(CN1CCNCCNCC1)OCC        inactive

Prompt: Record request — test call for Cc1cc(N(CCC#N)CCC#N)ccc1C(/N=N/c1ccccc1)=N\NC(=O)c1cc(Cl)ccc1O
Response: inactive

Prompt: Record request — test call for C=C1CC(OC)(C(O)C(=O)N[C@H]2OCO[C@H]3C2O[C@H](C[C@@H](COC)OC)C(C)(C)C3OC)O[C@H](C)[C@@H]1C (stereo not given in full)
Response: active

Prompt: Record request — test call for NN/C(=N\S(=O)(=O)c1cccc2nsnc12)Nc1ccc(Cl)cc1
Response: inactive

Prompt: Record request — test call for CC1CC(NC2CCCCC2)=Nc2ccccc2N1Cc1ccccc1 (stereo not given)
Response: inactive

Prompt: Record request — test call for N=C(N)SCc1ccc2c(c1)S(=O)(=O)c1ccccc1O2
Response: inactive

Prompt: Record request — test call for O=C(CC(C(=O)c1ccsc1)c1ccc2c(c1)OCO2)c1ccccc1 (stereo not given)
Response: inactive

Prompt: Record request — test call for N#C[BH2-][n+]1cn(C2CC(O)C(COP(=O)(O)OC3CC(n4cnc5c(N)ncnc54)OC3CO)O2)c2nc(N)[nH]c(=O)c21 (stereo not given)
Response: inactive

###

- System: OVCAR-3
- Experiment Notes: NCI tumour cell line growth inhibition, 48 h
The source made the active and inactive calls. Cut-off read from the data, not from the text of the source: active = GI50 up to about 1.1 µM and inactive = higher.
Measured Property: GI50

                                   molecule  measured_property       reported_value
0  CN1C(c2ccccc2)CC(O)CC1c1ccccc1 (stereo not given)               GI50  > 100 µM (inactive)
1                 CCOP(=O)(CN1CCNCCNCC1)OCC               GI50  > 100 µM (inactive)
2  COc1cc(/C=C2\N=C(c3ccccc3)N(c3ccc(C(=O)c4ccccc4)cc3N3C(=O)/C(=C/c4ccc(O)c(OC)c4)N=C3c3ccccc3)C2=O)ccc1O               GI50   3.52 µM (inactive)
3     Cc1cc(C)c2c(=N)c3ccccc3n(CCCCCCO)c2n1               GI50   6.55 µM (inactive)
4  C=CC1=C(C)/C(=C/C2=NC(=C\c3[nH]c(CC4NC(=O)C(C)/C4=C\C)c(C)c3CCC(=O)O)/C(CC(=O)O)=C2C)NC1=O (stereo not given)               GI50  > 100 µM (inactive)
5  c1ccc(C2CC(N3CCOCC3)=Nc3ccccc3N2)cc1 (stereo not given)               GI50  > 100 µM (inactive)

get_value(item= Nc1nc(N)c2ncn(Cc3ccccc3CCl)c2n1 , readout=GI50) returns > 100 µM (inactive)

get_value(item= O=C(NNS(=O)(=O)c1ccccc1)c1csc(NC(=S)NC2CCCCC2)n1 , readout=GI50) returns 4.07 µM (inactive)

get_value(item= Cc1cccc(Nc2nn3c(=O)c4c5c(sc4nc3s2)CCCC5)c1 , readout=GI50) returns 25.9 µM (inactive)

get_value(item= COC1=C(Br)C(O)C2(C=C1Br)CC(C(=O)NCCCCNC(=O)C1=NOC3(C=C(Br)C(OC)=C(Br)C3O)C1)=NO2 (stereo not given) , readout=GI50) returns 15.6 µM (inactive)

get_value(item= COc1cc([C@H]2c3cc4c(cc3O[C@@]3(O)COC(=O)[C@@H]23)OCO4)cc(OC)c1OC , readout=GI50) returns > 100 µM (inactive)

get_value(item= COc1ccc(C(C)c2cc3c(cc2O)OCO3)cc1 (stereo not given) , readout=GI50) returns 13.9 µM (inactive)

get_value(item= Cc1cc2c(cc1C)C(=O)C1(C2)Cc2cc3c(cc2C1=O)CCC3 (stereo not given) , readout=GI50) returns > 100 µM (inactive)

get_value(item= CS(=O)(=O)c1ccc(-c2cc(-c3ccc(S(C)(=O)=O)cc3)[n+](-c3cc(-c4ccccc4)c([O-])c(-c4ccccc4)c3)c(-c3ccc(S(C)(=O)=O)cc3)c2)cc1 , readout=GI50) returns > 100 µM (inactive)

get_value(item= O=C1NC(=S)NC(=O)C1=C/C=C/c1ccc([N+](=O)[O-])cc1 , readout=GI50) returns 14.3 µM (inactive)
